test: Probe fluorescence ratio response to linolenic acid relative to ADIFAB2; type: binding; details: response relative to ADIFAB2
measured-quantity: DR/DR LNA
Give the value as a plain number.

Consider the following illustrative entries.
molecule	DR/DR LNA
40V1, L72A (protein, listed as Rattus norvegicus, PEPTIDE (1)...(131) wild-type rat intestinal fatty acid binding protein) AFDGTWKVDRNENYEKFMEKMGINVVKRKLGAHDNLKLTVTQEGNKFTVKESSNFRNIDVVFELGVDFAYSAADGTELTGTWTMEGNKLVGKFKRVDNGKELIAVREISGNELIQTYTYEGVEAKRIFKKE	1.28
91C, 72A (protein, listed as Rattus norvegicus, PEPTIDE (1)...(131) wild-type rat intestinal fatty acid binding protein) AFDGTWKVDRNENYEKFMEKMGINVVKRKLGAHDNLKLTITQEGNKFTVKESSNFRNIDVVFELGVDFAYSAADGTELTGTWTMEGNKLVCKFKRVDNGKELIAVREISGNELIQTYTYEGVEAKRIFKKE	1.420
17A, 72A (protein, listed as Rattus norvegicus, PEPTIDE (1)...(131) wild-type rat intestinal fatty acid binding protein) AFDGTWKVDRNENYEKAMEKMGINVVKRKLGAHDNLKLTITQEGNKFTVKESSNFRNIDVVFELGVDFAYSAADGTELTGTWTMEGNKLVGKFKRVDNGKELIAVREISGNELIQTYTYEGVEAKRIFKKE	0.97
18V 31A 55I 72A (protein, listed as Rattus norvegicus, PEPTIDE (1)...(131) wild-type rat intestinal fatty acid binding protein) AFDGTWKVDRNENYEKFVEKMGINVVKRKLAAHDNLKLTITQEGNKFTVKESSNIRNIDVVFELGVDFAYSAADGTELTGTWTMEGNKLVGKFKRVDNGKELIAVREISGNELIQTYTYEGVEAKRIFKKE	1.580
14D, 72A (protein, listed as Rattus norvegicus, PEPTIDE (1)...(131) wild-type rat intestinal fatty acid binding protein) AFDGTWKVDRNENDEKFMEKMGINVVKRKLGAHDNLKLTITQEGNKFTVKESSNFRNIDVVFELGVDFAYSAADGTELTGTWTMEGNKLVGKFKRVDNGKELIAVREISGNELIQTYTYEGVEAKRIFKKE	0.51

Continue with the next molecule.
Using the record for 31Y2, 72A (protein, listed as Rattus norvegicus, PEPTIDE (1)...(131) wild-type rat intestinal fatty acid binding protein) AFDGTWKVDRNENYEKFMEKMGINVVKRKLYAHDNLKLTITQEGNKFTVKESSNFRNIDVVFELGVDFAYSAADGTELTGTWTMEGNKLVGKFKRVDNGKELIAVREISGNELIQTYTYEGVEAKRIFKKE , state its measured DR/DR LNA.
0.80

These data points were gathered from patent US20060257938A1.
